So I've got a bunch of compounds here, and I need their log10 of MIC values.
tested on: Bordetella bronchiseptica; test: In vitro antibacterial activity of compound was measured against gram negative Bordetella bronchiseptica ATCC 4617; assay type: functional
Transform log10 | Measure MIC | Unit µg/mL

Inquiry: Form: Entry = CN1CCN(c2cc3c(cc2F)c(=O)c(C(=O)O)cn3N2CC2c2ccccn2)CC1 (stereo not given) | System = Bordetella bronchiseptica | log10 of MIC = ____
Reply text: 2.00

Inquiry: GET /values?readout=log10 of MIC&system=Bordetella bronchiseptica&item= CN1CCN(c2cc3c(cc2F)c(=O)c(C(=O)O)cn3N2C3CCCCC32)CC1 (stereo not given)
Reply text: 1.40

Inquiry: Request: log10 of MIC, test system Bordetella bronchiseptica, entry CN1CCN(c2cc3c(cc2F)c(=O)c(C(=O)O)cn3N2CC2c2ccc(F)cc2)CC1 (stereo not given)
Reply text: 1.10

Inquiry: Field: log10 of MIC (Bordetella bronchiseptica). Entry: CN1CCN(c2c(F)cc3c(=O)c(C(=O)O)cn(N4CC4c4ccccc4)c3c2F)CC1 (stereo not given)
Reply text: 2.00

Inquiry: Checklist item: log10 of MIC tested on Bordetella bronchiseptica, entry CN1CCN(c2c(F)cc3c(=O)c(C(=O)O)cn(N4CC4c4cccc(C(F)(F)F)c4)c3c2F)CC1 (stereo not given) , value?
Reply text: 2.00

Inquiry: Test system Bordetella bronchiseptica; read-out log10 of MIC; what value for `O=C(O)c1cn(C2CC2)c2cc(N3CCNCC3)c(F)cc2c1=O` ?
Reply text: -0.60

Inquiry: Which measured log10 of MIC belongs to CN1CCN(c2cc3c(cc2F)c(=O)c(C(=O)O)cn3N2CC2c2ccccc2)CC1 (stereo not given) , tested on Bordetella bronchiseptica?
Reply text: 0.79

Inquiry: Under Bordetella bronchiseptica: log10 of MIC value of CN1CCN(c2cc3c(cc2F)c(=O)c(C(=O)O)cn3N2CC2c2cccc(C(F)(F)F)c2)CC1 (stereo not given) ?
Reply text: 1.70

----------
Kindly state log10(MIC) for each of the entries shown.
test system: Staphylococcus aureus; assay: In vitro antibacterial activity of compound was measured against gram positive Staphylococcus aureus SMITH; type: functional
Please be aware that the numbers have been log10-transformed from MIC in µg/mL.

Inquiry: Recall the recorded log10(MIC) for CN1CCN(c2cc3c(cc2F)c(=O)c(C(=O)O)cn3N2CC2c2cccc(C(F)(F)F)c2)CC1 (stereo not given) with Staphylococcus aureus and state it.
Reply text: 1.40

Inquiry: Item: CN1CCN(c2c(F)cc3c(=O)c(C(=O)O)cn(N4CC4c4cccc(C(F)(F)F)c4)c3c2F)CC1 (stereo not given) Test system: Staphylococcus aureus Read-out: log10(MIC) Value: ?
Reply text: 1.40

Inquiry: For the record CN1CCN(c2cc3c(cc2F)c(=O)c(C(=O)O)cn3N2CC2c2ccccn2)CC1 (stereo not given) , what value of log10(MIC) is listed for Staphylococcus aureus?
Reply text: 1.70

Inquiry: // fetch Staphylococcus aureus log10(MIC) for CN1CCN(c2cc3c(cc2F)c(=O)c(C(=O)O)cn3N2C3CCCCC32)CC1 (stereo not given)
Reply text: 1.70

Inquiry: # query: log10(MIC) | item CN1CCN(c2cc3c(cc2F)c(=O)c(C(=O)O)cn3N2CC2c2ccccc2)CC1 (stereo not given) | system: Staphylococcus aureus
Reply text: 1.10

Inquiry: Could you share what log10(MIC) was measured for CN1CCN(c2c(F)cc3c(=O)c(C(=O)O)cn(N4CC4c4ccccc4)c3c2F)CC1 (stereo not given) , tested on Staphylococcus aureus?
Reply text: 2.00

Inquiry: Find log10(MIC) (Staphylococcus aureus) for the entry O=C(O)c1cn(C2CC2)c2cc(N3CCNCC3)c(F)cc2c1=O [CIPROFLOXACIN]
Reply text: -0.92

Inquiry: Notebook: pull reported log10(MIC) for Staphylococcus aureus, entry CN1CCN(c2cc3c(cc2F)c(=O)c(C(=O)O)cn3N2CC2c2ccc(F)cc2)CC1 (stereo not given)
Reply text: 1.40

----------
test system: Mycobacterium tuberculosis; assay: In vitro antibacterial activity of compound was measured against gram positive Mycobacterium tuberculosis Ravenel(bovin); format: functional
Flag rule - MIC less than 50 µg/mL flags satisfied; the remaining entries get not satisfied.

Inquiry: Dear reviewer, please state whether O=C(O)c1cn(C2CC2)c2cc(N3CCNCC3)c(F)cc2c1=O [CIPROFLOXACIN] has MIC strictly beneath 50 µg/mL.
Reply text: satisfied

Inquiry: Record CN1CCN(c2cc3c(cc2F)c(=O)c(C(=O)O)cn3N2C3CCCCC32)CC1 (stereo not given) : is its MIC strictly below 50 µg/mL?
Reply text: satisfied

Inquiry: In plain terms, does CN1CCN(c2cc3c(cc2F)c(=O)c(C(=O)O)cn3N2CC2c2ccccn2)CC1 (stereo not given) come in under 50 µg/mL for MIC?
Reply text: satisfied

Inquiry: A record lists CN1CCN(c2cc3c(cc2F)c(=O)c(C(=O)O)cn3N2CC2c2ccc(F)cc2)CC1 (stereo not given) . Is its MIC below 50 µg/mL?
Reply text: satisfied

Inquiry: Given the entry CN1CCN(c2cc3c(cc2F)c(=O)c(C(=O)O)cn3N2CC2c2ccccc2)CC1 (stereo not given) , would its reported MIC be below 50 µg/mL?
Reply text: satisfied

Inquiry: Bench note: check whether CN1CCN(c2cc3c(cc2F)c(=O)c(C(=O)O)cn3N2CC2c2cccc(C(F)(F)F)c2)CC1 (stereo not given) shows MIC below 50 µg/mL
Reply text: not satisfied

----------
test system: Proteus inconstans; test: In vitro antibacterial activity of compound was measured against gram negative Proteus inconstans NCTC 8055; format: functional; details: Providencia alcalifaciens
Kindly supply the reported MIC values for the records listed here.
Entry rule: numbers only, all in µg/mL.

Inquiry: MIC lookup needed for `O=C(O)c1cn(C2CC2)c2cc(N3CCNCC3)c(F)cc2c1=O` , thanks.
Reply text: 0.03

Inquiry: Which MIC is reported for this molecule? CN1CCN(c2c(F)cc3c(=O)c(C(=O)O)cn(N4CC4c4ccccc4)c3c2F)CC1 (stereo not given)
Reply text: 50

Inquiry: Please look up its MIC: CN1CCN(c2c(F)cc3c(=O)c(C(=O)O)cn(N4CC4c4cccc(C(F)(F)F)c4)c3c2F)CC1 (stereo not given)
Reply text: 100

Inquiry: I have this molecule here, CN1CCN(c2cc3c(cc2F)c(=O)c(C(=O)O)cn3N2CC2c2cccc(C(F)(F)F)c2)CC1 (stereo not given) , and I need its recorded MIC.
Reply text: 100

Inquiry: What does the data say about its MIC? Entry: CN1CCN(c2c(F)cc3c(=O)c(C(=O)O)cn(N4CC4c4ccc(F)cc4)c3c2F)CC1 (stereo not given)
Reply text: 25

Inquiry: What MIC value was documented for this molecule, CN1CCN(c2cc3c(cc2F)c(=O)c(C(=O)O)cn3N2CC2c2ccc(F)cc2)CC1 (stereo not given) ?
Reply text: 100

Inquiry: # lookup: MIC of CN1CCN(c2c(F)cc3c(=O)c(C(=O)O)cn(N4CC4c4ccccn4)c3c2F)CC1 (stereo not given)
Reply text: 50

Inquiry: Find the recorded MIC belonging to CN1CCN(c2cc3c(cc2F)c(=O)c(C(=O)O)cn3N2C3CCCCC32)CC1 (stereo not given) and report it.
Reply text: 100

Inquiry: What measured MIC goes with CN1CCN(c2cc3c(cc2F)c(=O)c(C(=O)O)cn3N2CC2c2ccccc2)CC1 (stereo not given) ?
Reply text: 100

----------
test system: Streptococcus pneumoniae; experiment: In vitro antibacterial activity of compound was measured against gram positive Streptococcus pneumoniae; assay type: functional
For each record, write down the corresponding MIC.
Lab book: enter the figure in µg/mL, no units written.

Inquiry: GET /values?readout=MIC&item= CN1CCN(c2cc3c(cc2F)c(=O)c(C(=O)O)cn3N2C3CCCCC32)CC1 (stereo not given)
Reply text: 100

Inquiry: What value of MIC has been reported for the following molecule? CN1CCN(c2c(F)cc3c(=O)c(C(=O)O)cn(N4CC4c4cccc(C(F)(F)F)c4)c3c2F)CC1 (stereo not given)
Reply text: 25

Inquiry: If you can, please state the reported MIC value of CN1CCN(c2c(F)cc3c(=O)c(C(=O)O)cn(N4CC4c4ccccc4)c3c2F)CC1 (stereo not given) .
Reply text: 25

Inquiry: Data request, read-out MIC, for CN1CCN(c2c(F)cc3c(=O)c(C(=O)O)cn(N4CC4c4ccc(F)cc4)c3c2F)CC1 (stereo not given)
Reply text: 50

Inquiry: Name the recorded MIC for `O=C(O)c1cn(C2CC2)c2cc(N3CCNCC3)c(F)cc2c1=O` .
Reply text: 1

Inquiry: Quick check: MIC of CN1CCN(c2c(F)cc3c(=O)c(C(=O)O)cn(N4CC4c4ccccn4)c3c2F)CC1 (stereo not given) ?
Reply text: 100

Inquiry: # lookup: MIC of CN1CCN(c2cc3c(cc2F)c(=O)c(C(=O)O)cn3N2CC2c2ccccc2)CC1 (stereo not given)
Reply text: 5

Inquiry: Any idea what its MIC is? The molecule is CN1CCN(c2cc3c(cc2F)c(=O)c(C(=O)O)cn3N2CC2c2ccccn2)CC1 (stereo not given)
Reply text: 25

Inquiry: What value of MIC has been recorded for this entry: CN1CCN(c2cc3c(cc2F)c(=O)c(C(=O)O)cn3N2CC2c2ccc(F)cc2)CC1 (stereo not given)
Reply text: 5

Inquiry: What value of MIC has been reported for the following molecule? CN1CCN(c2cc3c(cc2F)c(=O)c(C(=O)O)cn3N2CC2c2cccc(C(F)(F)F)c2)CC1 (stereo not given)
Reply text: 12.5
